Data origin: PubChem BioAssay (Tox21)

# Assay Notes: qHTS assay to identify small molecule antagonists of the estrogen related receptor signaling pathway with the pleiotropic PPARgamma coactivator (PGC) from Tox21 10K library - cell viability counter screen (AID 1224840); note: % is set by controls: 0 for no effect and ±100 for the full control effect; nearly all actives have a fitted effect of over 40% in size
# Condition Label: PGC/ERR reporter cells viability, CellTiter-Fluor, 17.5 h; series mostly up to 92.4 µM
Inconclusive results are not listed. Active and inactive are the calls of the source. Calls come from the whole dose curve; as a rule, active = well fitted cell-killing curve with a large enough effect in the repeat runs (not every such curve was filed as active); inconclusive = weak or mixed curves, or effect the other way; inactive = no such curve, though single readings can be large or run the other way. Non-standard residues stand in square brackets, D forms with d. Residues, ends and D or L forms follow the SMILES beside them. *: point of attachment. Sta = CC(C)C[C@H](N)[C@@H](O)CC(=O)O; Isovaleryl = CC(C)CC(=O)*
Assay Metric: viability change, negative = cytotoxic

Compound	viability change, negative = cytotoxic
CC(C)C[P+](C)(CC(C)C)CC(C)C	inactive
Clc1cc(Cl)c(Cl)c(Cl)c1Cl	inactive
CC/C=C\CCCCCCCCCCOC(C)=O	inactive
CCC(=O)OCCOc1ccccc1	inactive
C/C=C(\C)C=O	inactive

Could you report viability change, negative = cytotoxic for every entry in the following list?
1. Cc1ccccc1C#N
2. CCOC(=O)c1ccc(N(C)C)cc1
3. CC(C)CC(=O)N[C@H](C(=O)N[C@H](C(=O)N[C@@H](CC(C)C)[C@@H](O)CC(=O)N[C@@H](C)C(=O)N[C@@H](CC(C)C)[C@@H](O)CC(=O)O)C(C)C)C(C)C (Isovaleryl-VV[Sta]A[Sta]-OH)
4. COC(=O)c1cc(Cl)c(NC(C)=O)cc1OC

RESULT:
["inactive", "inactive", "inactive", "inactive"]

I would be grateful if you could provide viability change, negative = cytotoxic for each of the following entries.
1. C[C@]12C=CC(=O)C=C1[C@@H](F)C[C@@H]1[C@@H]2[C@@H](O)C[C@@]2(C)[C@H]1CC[C@]2(O)C(=O)CO
2. CC12CCCC=C1C(=O)OC2=O (stereo unspecified)

RESULT:
1. inactive
2. inactive

Kindly give each listed record's viability change, negative = cytotoxic.
1. Cc1cc2c(cc1CC(=O)c1sccc1S(=O)(=O)Nc1onc(C)c1Cl)OCO2
2. CCCc1ccc(O)c(OC)c1
3. CCCOc1ccc(C(=O)OCCN(CC)CC)cc1N
4. CNCCc1ccccn1
5. CC(C)=CCC/C(C)=C\C#N
6. CN1C(CCl)Nc2cc(Cl)c(S(N)(=O)=O)cc2S1(=O)=O (stereo unspecified)
7. CCCCCCCCS(=O)(=O)O
8. CC(C)(C)c1ccc(C(=O)CCCCl)cc1

RESULT:
inactive
inactive
inactive
inactive
inactive
inactive
inactive
inactive

---

# Assay Notes: qHTS RealTime-Glo MT Cell Viability Assay in HEK293 cells - 24 hour (AID 1224886); note: top concentration of the series differs between compounds; % is set by controls: 0 for no effect and ±100 for the full control effect; nearly all actives have a fitted effect of over 50% in size
# Condition Label: RealTime-Glo luminescence; series mostly up to 76.8 µM
# Source text: National Center for Advancing Translational Sciences [NCATS] NIH Chemical Genomics Center [NCGC] U.S. Environmental Protection Agency [EPA] National Institutes of Environmental Health Sciences [NIEHS] National Toxicology Program [NTP] U.S. Food and Drug Administration [FDA] Measure of cell viability is critical in the cell-base assay. Analysis of cell viability is necessary for the characterization of cell responses to cytotoxic drugs and environmental stress. […]
Results filed as inconclusive are left out. The source made the active and inactive calls. The call rests on the fitted dose curve; in most records, active means well fitted cell-killing curve with a large enough effect in the repeat runs; inconclusive means weak or mixed curves, or effect the other way; inactive means flat fitted curve, though single readings scatter.
Assay Metric: activity change, negative = cytotoxicity

Compound	activity change, negative = cytotoxicity
CCCCCCCCCCCCCCCC(=O)OC	-2.1% [at 15.8 µM] (inactive)
CC(=O)OC/C=C(/C)CCC=C(C)C	inactive
CCC(=O)OCCOc1ccccc1	inactive
O=C1CCCc2c(O)cccc21	inactive
O=C1c2ccccc2C(=O)N1CO	inactive
CN(C)CCC[C@@]1(c2ccc(F)cc2)OCc2cc(C#N)ccc21	inactive
C[C@@H]1NC(=O)[C@@H](N)CNC(=O)[C@H](C2CCNC(N)=N2)NC(=O)/C(=C/NC(N)=O)NC(=O)[C@H](CNC(=O)C[C@@H](N)CCCN)NC1=O (some centres not stated)	0.653% [at 0.29 µM] (inactive)
C/C=C(\C)C(=O)OC/C=C(\C)CCC=C(C)C	inactive

Dear colleague, could you send me activity change, negative = cytotoxicity for each of the items below? Thanks.
1. COC(=O)N/N=C/c1c[n+]([O-])c2ccccc2[n+]1[O-]
2. Cc1ccccc1C#N
3. C=CC(=O)CC
4. C[C@]12C=CC(=O)C=C1[C@@H](F)C[C@@H]1[C@@H]2[C@@H](O)C[C@@]2(C)[C@H]1CC[C@]2(O)C(=O)CO

RESULT:
1. inactive
2. inactive
3. inactive
4. inactive
